Biological target: Cholinesterase (Equus caballus) (UniProt P81908)
Sequence (P81908 whole entry): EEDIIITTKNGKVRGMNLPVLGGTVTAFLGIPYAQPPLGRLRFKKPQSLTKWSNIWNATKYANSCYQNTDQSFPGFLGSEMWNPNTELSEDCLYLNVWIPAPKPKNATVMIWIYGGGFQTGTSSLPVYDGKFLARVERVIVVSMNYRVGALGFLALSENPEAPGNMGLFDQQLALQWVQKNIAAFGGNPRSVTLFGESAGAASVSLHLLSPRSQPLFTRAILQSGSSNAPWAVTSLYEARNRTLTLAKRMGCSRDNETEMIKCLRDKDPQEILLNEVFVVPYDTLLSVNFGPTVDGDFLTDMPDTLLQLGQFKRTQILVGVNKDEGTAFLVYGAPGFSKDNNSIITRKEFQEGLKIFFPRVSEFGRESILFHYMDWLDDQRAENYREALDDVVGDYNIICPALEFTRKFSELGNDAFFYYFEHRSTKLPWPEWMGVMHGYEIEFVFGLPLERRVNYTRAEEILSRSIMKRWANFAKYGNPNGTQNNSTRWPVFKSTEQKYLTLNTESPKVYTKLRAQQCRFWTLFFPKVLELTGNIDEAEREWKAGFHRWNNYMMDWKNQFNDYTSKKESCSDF
Assay: Inhibition of equine serum BuChE at 100 uM using butyrylthiocholine iodide as substrate by Ellman's colorimetric analysis relative to control
measure: inhibition

>>> assayvalue("O=C(Oc1ccc(OC(=O)c2ccccc2)c([C@@H]2O[C@H](CO)[C@@H](O)[C@H](O)[C@H]2O)c1)c1ccccc1")
"21%"
>>> assayvalue("CC(=O)c1c(O)cc(O)c([C@@H]2O[C@H](CO)[C@@H](O)[C@H](O)[C@H]2O)c1O")
"15%"
>>> assayvalue("O=C(Oc1ccc([C@@H]2O[C@H](CO)[C@@H](O)[C@H](O)[C@H]2O)cc1OC(=O)c1ccccc1)c1ccccc1")
"39%"

Returns the measured inhibition for the input molecule. Input: O=C(Cc1ccccc1)c1c(O)cc(O)c([C@@H]2O[C@H](CO)[C@@H](O)[C@H](O)[C@H]2O)c1O
17%

# iterate: O=C(Oc1ccc(O[C@H]2O[C@H](CO)[C@@H](O)[C@H](O)[C@H]2O)cc1)c1ccccc1
10%

# iterate: COC[C@H]1O[C@@H](c2ccc(OC(=O)c3ccccc3)c(OC(=O)c3ccccc3)c2)[C@H](OC)[C@@H](OC)[C@@H]1OC
12%

* * *

Target: Cholinesterase (Equus caballus) (UniProt P81908)
Test: Inhibition of equine serum BuChE at 100 uM using butyrylthiocholine iodide as substrate by Ellman's colorimetric analysis relative to control
Hi, to clarify the labels: Fulfilled covers inhibition from 20% upward, Not fulfilled covers anything below 20%.

>>> label("COC[C@H]1O[C@@H](c2c(O)cc(O)c(C(C)=O)c2O)[C@H](OC)[C@@H](OC)[C@@H]1OC")
"Not fulfilled"
>>> label("COC[C@H]1O[C@@H](c2c(O)ccc3ccccc23)[C@H](OC)[C@@H](OC)[C@@H]1OC")
"Fulfilled"
>>> label("OC[C@H]1O[C@@H](c2c(O)ccc3ccccc23)[C@H](O)[C@@H](O)[C@@H]1O")
"Not fulfilled"
>>> label("COC[C@H]1O[C@@H](c2cc(OC(=O)c3ccccc3)ccc2OC(=O)c2ccccc2)[C@H](OC)[C@@H](OC)[C@@H]1OC")
"Not fulfilled"
>>> label("O=C(Oc1ccccc1O[C@H]1O[C@H](CO)[C@@H](O)[C@H](O)[C@H]1O)c1ccccc1")
"Not fulfilled"
>>> label("COC[C@H]1O[C@@H](c2cc(OC(=O)c3ccccc3)ccc2O)[C@H](OC)[C@@H](OC)[C@@H]1OC")
"Not fulfilled"
>>> label("O=c1c(-c2ccc(O)cc2)coc2cc(O)cc(O)c12 [GENISTEIN]")
"Fulfilled"
>>> label("COC[C@H]1O[C@@H](c2ccc(O)c(O)c2)[C@H](OC)[C@@H](OC)[C@@H]1OC")
"Not fulfilled"
>>> label("COC[C@H]1O[C@@H](c2cc(O)ccc2O)[C@H](OC)[C@@H](OC)[C@@H]1OC")
"Fulfilled"

Then there is this molecule:
Check if inhibition >= 20% (inclusive). Item: COC[C@H]1O[C@@H](c2c(O)cc(O)cc2O)[C@H](OC)[C@@H](OC)[C@@H]1OC
Not fulfilled

* * *

Experiment: Aggregation property of the compound in PBS buffer at 10 to 100 uM incubated for 2 hrs by UV/Vis double beam spectrophotometric method
Format: physicochemical
Conditions: dose 10-100 µM
measure: Activity

>>> assayvalue("OC[C@H]1O[C@@H](c2c(O)ccc3ccccc23)[C@H](O)[C@@H](O)[C@@H]1O")
"Not Active"
>>> assayvalue("CC(=O)c1c(O)cc(O)c([C@@H]2O[C@H](CO)[C@@H](O)[C@H](O)[C@H]2O)c1O")
"Not Active"
>>> assayvalue("COC[C@H]1O[C@@H](c2c(O)cc(O)cc2O)[C@H](OC)[C@@H](OC)[C@@H]1OC")
"Not Active"
>>> assayvalue("COC[C@H]1O[C@@H](c2cc(O)ccc2O)[C@H](OC)[C@@H](OC)[C@@H]1OC")
"Not Active"

* * *

Assay: Aggregation property of the compound in PBS buffer assessed as aggregate formation at 10 to 100 uM incubated for 2 hrs by light scattering spectrofluorimetric assay
Type: physicochemical
Conditions: dose 10-100 µM
measure: Activity

Example compounds with recorded Activity:
>>> assayvalue("CC(=O)c1c(O)cc(O)c([C@@H]2O[C@H](CO)[C@@H](O)[C@H](O)[C@H]2O)c1O")
"Not Active"
>>> assayvalue("COC[C@H]1O[C@@H](c2c(O)cc(O)cc2O)[C@H](OC)[C@@H](OC)[C@@H]1OC")
"Not Active"
>>> assayvalue("O=C(Oc1ccccc1O[C@H]1O[C@H](CO)[C@@H](O)[C@H](O)[C@H]1O)c1ccccc1")
"Not Active"
>>> assayvalue("O=C(Oc1ccc(O)c([C@@H]2O[C@H](CO)[C@@H](O)[C@H](O)[C@H]2O)c1)c1ccccc1")
"Not Active"
>>> assayvalue("OC[C@H]1O[C@@H](c2c(O)ccc3ccccc23)[C@H](O)[C@@H](O)[C@@H]1O")
"Not Active"
>>> assayvalue("CC(=O)N1CCN(c2ccc(OCC3COC(Cn4ccnc4)(c4ccc(Cl)cc4Cl)O3)cc2)CC1 (centres undefined)")
"Not Active"

Returns the measured Activity for the input compound. Input: O=C(Oc1ccc([C@@H]2O[C@H](CO)[C@@H](O)[C@H](O)[C@H]2O)cc1OC(=O)c1ccccc1)c1ccccc1
Not Active

# iterate: COC[C@H]1O[C@@H](c2c(O)cc(O)c(C(C)=O)c2O)[C@H](OC)[C@@H](OC)[C@@H]1OC
Not Active

# iterate: COC[C@H]1O[C@@H](c2cc(O)ccc2O)[C@H](OC)[C@@H](OC)[C@@H]1OC
Not Active

* * *

Assay: Octanol/water partition coefficient, log D of compound at pH 7.4 at 1 uM incubated for 2 hrs by LC-MS analysis
Assay type: physicochemical
Hi, to clarify the labels: True covers logD at 2 h, 1 µM from 2 upward, False covers anything below 2.

>>> label("O=C(Oc1ccccc1O[C@H]1O[C@H](CO)[C@@H](O)[C@H](O)[C@H]1O)c1ccccc1")
"False"
>>> label("O=c1c(-c2ccc(O)cc2)coc2cc(O)cc(O)c12")
"True"
>>> label("O=C(Oc1ccc(O)c([C@@H]2O[C@H](CO)[C@@H](O)[C@H](O)[C@H]2O)c1)c1ccccc1")
"False"
>>> label("COC[C@H]1O[C@@H](c2cc(OC(=O)c3ccccc3)ccc2OC(=O)c2ccccc2)[C@H](OC)[C@@H](OC)[C@@H]1OC")
"True"
>>> label("COC[C@H]1O[C@@H](c2c(O)cc(O)c(C(C)=O)c2O)[C@H](OC)[C@@H](OC)[C@@H]1OC")
"True"

Check if logD at 2 h, 1 µM >= 2 (inclusive). Item: O=c1c(-c2ccc(O)cc2)coc2c([C@@H]3O[C@H](CO)[C@@H](O)[C@H](O)[C@H]3O)c(O)cc(O)c12
False

# iterate: COC[C@H]1O[C@@H](c2ccc(OC(=O)c3ccccc3)c(OC(=O)c3ccccc3)c2)[C@H](OC)[C@@H](OC)[C@@H]1OC
True

* * *

Target: Acetylcholinesterase (Electrophorus electricus)
Experiment: Inhibition of electric eel AChE at 100 uM using acetylthiocholine iodide as substrate by Ellman's colorimetric analysis relative to control
Active and inactive are the calls of the source. The calls are words filed in the database; no cut-off is given here.
measure: inhibition

>>> assayvalue("COC[C@H]1O[C@@H](c2c(O)cc(O)c(C(C)=O)c2O)[C@H](OC)[C@@H](OC)[C@@H]1OC")
"inactive"
>>> assayvalue("COC[C@H]1O[C@@H](c2c(O)ccc3ccccc23)[C@H](OC)[C@@H](OC)[C@@H]1OC")
"inactive"
>>> assayvalue("COC[C@H]1O[C@@H](c2ccc(OC(=O)c3ccccc3)c(OC(=O)c3ccccc3)c2)[C@H](OC)[C@@H](OC)[C@@H]1OC")
"inactive"
>>> assayvalue("COC[C@H]1O[C@@H](c2cc(O)ccc2O)[C@H](OC)[C@@H](OC)[C@@H]1OC")
"inactive"
>>> assayvalue("COC[C@H]1O[C@@H](c2cc(OC(=O)c3ccccc3)ccc2O)[C@H](OC)[C@@H](OC)[C@@H]1OC")
"14%"

Returns the measured inhibition for the input compound. Input: CC(=O)c1c(O)cc(O)c([C@@H]2O[C@H](CO)[C@@H](O)[C@H](O)[C@H]2O)c1O
inactive
